test: inhibitors of the yeast RAM network, pilot screen, dse1pr::URA3 reporter, 5-FOA selection (AID 869);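 further: 0% = DMSO wells with no growth and 100% = 10 µM 1-NA-PP1 with full growth; RAM network block rescues cells from 5-FOA so hits raise OD615 growth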
assayContext: S. cerevisiae dse1pr::URA3 5-FOA growth, OD615, 2 d; at 10 µM; hits give high values; strain carries analog-sensitive mutant Cbk1 kinase
valueType: inhibition (%)

compound=CC(=O)c1coc2ccc(OCCN3CCCCC3)cc12 valuetype=inhibition reportedvalue=0.64
compound=Cc1cc(CN2C(=O)c3ccccc3C2=O)cc(N2CCOCC2)c1 valuetype=inhibition reportedvalue=0.76
compound=Cc1c(C(=O)N2CCCC2)oc2c1-c1[nH]ncc1CC2 valuetype=inhibition reportedvalue=0.715
compound=C=C(C)CSc1nnc(-c2ccc(OC)c(OC)c2)n1N valuetype=inhibition reportedvalue=-0.36
compound=COc1ccc(S(=O)(=O)Cc2ccc(C(=O)NC3CCCC3)o2)cc1 valuetype=inhibition reportedvalue=1.19
compound="CCOc1ccc2nc(N3CCCC(C(=O)NCCCN4CCOCC4)C3)sc2c1 (configuration not stated)" valuetype=inhibition reportedvalue=1.36
compound=Cc1ccc(S(=O)(=O)Cc2ccc(C(=O)N3CCCC3)o2)cc1 valuetype=inhibition reportedvalue=1.19
compound=Cc1cc(-n2c(SCCC#N)nnc2-c2cccnc2)ccc1Cl valuetype=inhibition reportedvalue=3.32
compound=CNC(=O)N(C1=NCC(C)(C)S1)c1ccc(F)c(Cl)c1 valuetype=inhibition reportedvalue=1.26
compound=CCOC(=O)CC(=O)Nc1ccc(Br)cc1C(=O)O valuetype=inhibition reportedvalue=2.16
compound="CCOC(=O)C(C)n1cnc2c(nnn2-c2cccc(Cl)c2)c1=O (configuration not stated)" valuetype=inhibition reportedvalue=2.58
compound="CC1C(c2ccccc2)=[N+]([O-])C2(CCCC2)N1O (configuration not stated)" valuetype=inhibition reportedvalue=1.53

====

test: growth suppression of PTEN-deleted HCT116, pilot screen, cell-based, HCT116 clonal line, CellTiter-Glo (AID 824);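 further: 0% = 20 µM Hyamine control and 100% = vehicle cell control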
assayContext: 60 h, at 10 µM, hits give low values
Results filed as inconclusive are left out.
valueType: viability (%)

compound=Cc1[nH]c2ccccc2c1SCCN reportedvalue=62.9
compound=Cc1onc(-c2ccccc2)c1C(=O)Nc1ccc2c(c1)OCCO2 reportedvalue=94.9
compound=CCOC(=O)C1CCN(S(=O)(=O)c2ccc(OCC)cc2)CC1 reportedvalue=94.4
compound=Cn1ccnc1SCC(=O)c1cc2ccccc2o1 reportedvalue=99.4
compound=COc1ccc(-n2c(Cc3cc(=O)[nH]c(=O)[nH]3)nnc2SCC(=O)NC2CCCC2)cc1 reportedvalue=107
compound=Cc1cccc(OCC2=N/C(=C\N(C)C)C(=O)O2)c1 reportedvalue=91.3
compound="CC1=C(C(=O)OCC(C)C)C(c2ccccc2Cl)NC(=O)N1C (centres undefined)" reportedvalue=67.8
compound=Cc1cc(C(=O)OCc2nnc(-c3ccccc3)o2)c(C)n1-c1ccccc1 reportedvalue=80.6
compound="Cc1nc2ccc(S(=O)(=O)NC(C(=O)NC3CCCC3)C(C)C)cc2s1 (centres undefined)" reportedvalue=101
compound=Cn1nc(-c2ccc(Cl)cc2)c2cc(C(=O)NCc3ccco3)sc21 reportedvalue=47
compound=COc1ccc(OC)c2sc(NC(=O)C3CC3)nc12 reportedvalue=90.3
compound="COCCn1c(SCC(N)=O)nc2c(c1=O)SC(C)C2 (centres undefined)" reportedvalue=97
compound="COc1ccc(C2C(C(=O)NCCN(C)C)c3ccccc3C(=O)N2C)cc1OC (centres undefined)" reportedvalue=97.9
compound=COc1ccc(N2CCN(C(=O)c3ccc4c(c3)OCO4)CC2)cc1 reportedvalue=100
compound=CCn1nnc(NC(=O)c2ccc(C(C)(C)C)cc2)n1 reportedvalue=90.9
compound=O=S(=O)(c1ccc(-c2cn3ccccc3n2)cc1)N1CCOCC1 reportedvalue=97.3
compound=CCOc1cccc2sc(NC(=O)c3ccc(Br)s3)nc12 reportedvalue=58
compound=COc1cc2c(cc1OC)CN(C(=O)C(C)(C)C)CC2 reportedvalue=96.7
compound=Cc1nnc(SCC(=O)Nc2ccc3c(c2)COC3=O)n1-c1ccccc1 reportedvalue=92.8
compound="COc1cccc(N2C(=O)C3CCCN3C2c2ccc(Cl)cc2)c1 (centres undefined)" reportedvalue=87
compound=Cc1nc(SC(C)C)[nH]c(=O)c1Cc1ccccc1 reportedvalue=91.8
compound="C=CCSc1nc2c(c(=O)[nH]1)C(C(C)C)C(C#N)=C(N)O2 (centres undefined)" reportedvalue=101
compound=CC(=O)NCC(=O)OCC(=O)c1ccc(C)c(C)c1 reportedvalue=95.1
compound="COCCCN1C(=O)C(O)=C(C(=O)c2ccc(C)o2)C1c1cccc(Br)c1 (centres undefined)" reportedvalue=106
